B1: WEE1 (parent)
chain: FISRTSIPNAASEEGDEDDWASNK

variants of: B1; test: protein stability index of a GFP-peptide fusion (GPS, HEK-293T) (PSI 1-6); higher = more stable; details: c terminus: a fixed tail appended;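 note: lentivirally expressed fusions sorted by FACS into six bins by GFP to DsRed ratio, PSI derived from sequencing read proportions per bin multiplied by bin number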
Quick rule: protein stability index of at least 4 means met, below that means not met.

Record excerpt, results attached:
query.sequence	class.name
FISRTMIPNAASEEGDEDDWASNK [S6M]	not met
FISRTSIPNAASEEGDEPDWASNK [D18P]	not met
FISRTSINNAASEEGDEDDWASNK [P8N]	met
FISRTSIPNAAREEGDEDDWASNK [S12R]	met
FISRTSIPNAADEEGDEDDWASNK [S12D]	met
FISRTSIPNAASEEGDEDDWWSNK [A21W]	not met

**Q:** Test whether the variant FISRTSIPNAASEEGDEDDWFSNK [A21F] records protein stability index of 4 or higher.
**A:** not met

**Q:** Test whether the variant FISRTSIPNAASEEGDEDDWAGNK [S22G] records protein stability index of 4 or higher.
**A:** not met

**Q:** Test whether the variant FISRTSIPNAESEEGDEDDWASNK [A11E] records protein stability index of 4 or higher.
**A:** met

**Q:** Test whether the variant FISRTSIPNAASEEGDEDDWAKNK [S22K] records protein stability index of 4 or higher.
**A:** met

**Q:** Test whether the variant FISRTSIPNAASEEGDEEDWASNK [D18E] records protein stability index of 4 or higher.
**A:** met

**Q:** Test whether the variant FISRTSIPNIASEEGDEDDWASNK [A10I] records protein stability index of 4 or higher.
**A:** not met
